pIC50: −log10 of the molar value.
pIC50 tested on Cyclin-dependent kinase 5/CDK5 activator 1 (Homo sapiens): recorded values
Sequence (Q00535 whole entry): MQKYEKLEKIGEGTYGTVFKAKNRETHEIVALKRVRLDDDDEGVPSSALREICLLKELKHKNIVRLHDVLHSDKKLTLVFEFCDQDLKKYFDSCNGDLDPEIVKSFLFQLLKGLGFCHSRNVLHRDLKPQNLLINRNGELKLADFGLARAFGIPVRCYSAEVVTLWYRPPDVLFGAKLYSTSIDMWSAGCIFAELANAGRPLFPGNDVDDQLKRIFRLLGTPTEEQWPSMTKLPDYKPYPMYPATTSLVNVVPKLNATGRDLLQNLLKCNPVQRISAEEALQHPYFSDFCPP
Sequence (Q15078 whole entry, further chain): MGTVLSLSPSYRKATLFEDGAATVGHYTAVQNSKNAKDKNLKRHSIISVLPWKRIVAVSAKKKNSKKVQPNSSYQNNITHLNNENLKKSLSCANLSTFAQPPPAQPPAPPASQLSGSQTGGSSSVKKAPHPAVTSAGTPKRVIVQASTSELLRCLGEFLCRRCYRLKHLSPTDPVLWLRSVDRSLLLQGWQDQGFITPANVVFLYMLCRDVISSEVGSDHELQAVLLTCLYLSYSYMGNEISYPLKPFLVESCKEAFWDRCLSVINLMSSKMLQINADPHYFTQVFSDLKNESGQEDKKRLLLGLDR

Solved cases (10 shown):
O=C1NC(Nc2ccccc2)=N/C1=C\c1ccc2ncsc2c1    < 5.00
CC(C)C[C@H](COC1CC1)NC1=N/C(=C\c2ccc3ncsc3c2)C(=O)N1    < 5.00
CCCCCCc1ccc(NC2=N/C(=C\c3ccc4ncsc4c3)C(=O)N2)cc1    < 5.00
O=C1NC(N[C@H]2C3CC4CC2C[C@](O)(C4)C3)=N/C1=C\c1ccc2ncsc2c1    5.64
O=C1NC(NC2CCC(F)(F)C2)=N/C1=C\c1ccc2ncsc2c1 (racemic)    5.26
Cn1ncc2cc(/C=C3\N=C(NC4CCCCCC4)NC3=O)ccc21    < 5.00
O=C1NC(NCC(O)Cc2ccccc2)=N/C1=C\c1ccc2ncsc2c1 (racemic)    < 5.00
Cn1cnc2cc(/C=C3\N=C(NC4CCCCCC4)NC3=O)ccc21    < 5.00
CO[C@H]1CC[C@H](NC2=N/C(=C\c3ccc4ncsc4c3)C(=O)N2)CC1    < 5.00
O=C1NC(NC2CCCCC2)=N/C1=C\c1ccc2[nH]ncc2c1    < 5.00

Write down the reported pIC50 (system: Cyclin-dependent kinase 5/CDK5 activator 1 (Homo sapiens)) of "O=C1NC(NC23CC4CC(CC(O)(C4)C2)C3)=N/C1=C\c1ccc2ncsc2c1"
6.48

Write down the reported pIC50 (system: Cyclin-dependent kinase 5/CDK5 activator 1 (Homo sapiens)) of "O=C1NC(NC2CCCCC2)=N/C1=C\c1ccc2c(c1)OCO2"
< 5.00

Write down the reported pIC50 (system: Cyclin-dependent kinase 5/CDK5 activator 1 (Homo sapiens)) of CC1(C)CNC(=O)C1NC1=N/C(=C\c2ccc3ncsc3c2)C(=O)N1 (racemic)
< 5.00

Write down the reported pIC50 (system: Cyclin-dependent kinase 5/CDK5 activator 1 (Homo sapiens)) of "O=C1NC(NCc2ccncc2)=N/C1=C\c1ccc2ncsc2c1"
< 5.00

Write down the reported pIC50 (system: Cyclin-dependent kinase 5/CDK5 activator 1 (Homo sapiens)) of O=C1NC(N[C@@H]2CCCC[C@H](O)C2)=N/C1=C\c1ccc2ncsc2c1 (racemic)
< 5.00

Write down the reported pIC50 (system: Cyclin-dependent kinase 5/CDK5 activator 1 (Homo sapiens)) of O=C1NC(NC(CO)C2CCCCC2)=N/C1=C\c1ccc2ncsc2c1 (racemic)
< 5.00

Write down the reported pIC50 (system: Cyclin-dependent kinase 5/CDK5 activator 1 (Homo sapiens)) of "O=C1NC(N[C@H]2CN3CCC2CC3)=N/C1=C\c1ccc2ncsc2c1"
< 5.00

Write down the reported pIC50 (system: Cyclin-dependent kinase 5/CDK5 activator 1 (Homo sapiens)) of "O=C1NC(N[C@@H](CO)CC2CC2)=N/C1=C\c1ccc2ncsc2c1"
< 5.00

Write down the reported pIC50 (system: Cyclin-dependent kinase 5/CDK5 activator 1 (Homo sapiens)) of "COC(=O)[C@@H](Cc1ccccc1)NC1=N/C(=C\c2ccc3ncsc3c2)C(=O)N1"
< 5.00

Write down the reported pIC50 (system: Cyclin-dependent kinase 5/CDK5 activator 1 (Homo sapiens)) of "O=C1NC(NC2CCCCC2)=N/C1=C\c1ccc2ncsc2c1"
5.17

Write down the reported pIC50 (system: Cyclin-dependent kinase 5/CDK5 activator 1 (Homo sapiens)) of "Cc1ccc(NC2=N/C(=C\c3ccc4ncsc4c3)C(=O)N2)cc1F"
< 5.00
